# Test system: TK-10 renal
# Method Description: NCI tumour cell line growth inhibition, 48 h
Parameter: TGI

1) NS(=O)(=O)c1ccc(Nc2c3ccccc3nc3c(C(=O)N4CCN(CCO)CC4)cccc23)cc1 : > 100 µM
2) CCOC(=O)C(NC(C)=O)(Nc1ccc(S(N)(=O)=O)cc1)C(F)(F)F (configuration not stated) : > 100 µM
3) CC(=O)OCC1OC(c2c(OC(C)=O)cc(C)c3c(=O)cc(/C(C(C)=O)=C(\C)O)oc23)C(OC(C)=O)C(OC(C)=O)C1OC(C)=O (configuration not stated) : > 100 µM
4) Nc1ccc(O)c2c1C(=O)c1c(N)ccc(O)c1C2=O : > 100 µM
5) Cn1c2c(c3ccccc31)CCN(CCCCN1CCN(c3ccccc3)CC1)C2=O : > 90.4 µM
6) CC(=O)O[C@H]1CCN2C(=O)C=CC(OCc3ccccc3)C12 (some centres not stated) : > 100 µM
7) Cc1ccc(Cc2nn(C)c(=O)n2N)cc1 : > 100 µM
8) CCOC(=O)c1ccc(C(=O)n2ccnc2)[nH]1 : > 100 µM
9) Clc1cc(Cl)c(OCCCCCCN2CCNCC2)c(Cl)c1 : 24.5 µM
10) CC[C@@]1(O)C(=O)OCc2c1cc1n(c2=O)Cc2cc3ccccc3nc2-1 : 51.2 µM
11) COc1cccc(/C=C/C(=O)c2sc(C(N)=S)nc2C)c1O : > 100 µM
12) C=CC(=O)NC(N)=NC#N : 272 µM

Values compiled from PubChem BioAssay (NCI).
